Reference source for all entries: patent US20160009693A1

Test system: Setaria faberi (SETFA)
Assay Summary: Herbicidal glasshouse test, post-emergence, SETFA
Assay type: in vivo
Experimental Context: applied at 1000 g/h, evaluated after 13 days
Quantity Kind: POST Application SETFA, percentage damage (five point scale)

Completed entries (count: 5):
line_notation=CC#CCn1c(=O)c(C(=O)Nc2nnnn2C)nn(C)c1=O target_or_system="Setaria faberi (SETFA)" measured_result="5 (5=80-100%)"
line_notation=CCn1nnnc1NC(=O)c1cn(C)c(=O)n(-c2cccc(F)c2)c1=O target_or_system="Setaria faberi (SETFA)" measured_result="1 (1=0-19%)"
line_notation=Cn1nnnc1NC(=O)c1nn(C)c(=O)n(-c2ccc(C(C)(C)C)cc2)c1=O target_or_system="Setaria faberi (SETFA)" measured_result="5 (5=80-100%)"
line_notation=Cn1nnnc1NC(=O)c1nn(C)c(=O)n(Cc2ccc(C(F)(F)F)cc2)c1=O target_or_system="Setaria faberi (SETFA)" measured_result="1 (1=0-19%)"
line_notation=Cn1nnnc1NC(=O)c1nn(C)c(=O)n(Cc2ccc(F)cc2Cl)c1=O target_or_system="Setaria faberi (SETFA)" measured_result="2 (2=20-39%)"

Quick note, POST Application SETFA, percentage damage (five point scale) for Cn1nnnc1NC(=O)c1nn(C)c(=O)n(Cc2cccc(C#N)c2)c1=O landed at 4 (4=60-79%)

GET /value?item= Cn1nnnc1NC(=O)c1nn(C)c(=O)n(-c2ccc(Br)cc2)c1=O &field=POST Application SETFA, percentage damage (five point scale) returns 5 (5=80-100%)

The measured POST Application SETFA, percentage damage (five point scale) associated with CC(C)Cn1c(=O)c(C(=O)Nc2nnnn2C)nn(C)c1=O reads 5 (5=80-100%)

###

Test system: Setaria faberi (SETFA)
Assay Summary: Herbicidal glasshouse test, post-emergence, SETFA
Type: in vivo
Experimental Context: applied at 1000 g/h, evaluated after 13 days
Each item that follows carries a reported POST Application SETFA, percentage damage (five point scale).

compound="Cn1nnnc1NC(=O)c1nn(C)c(=O)n(Cc2c(F)cc(F)cc2F)c1=O [Compound 1.056]" measured_result="4 (4=60-79%)"
compound="CCCCn1c(=O)c(C(=O)Nc2nnnn2C)nn(C)c1=O [Compound 1.001]" measured_result="5 (5=80-100%)"
compound="Cn1nnnc1NC(=O)c1nn(C)c(=O)n(Cc2ccccc2[N+](=O)[O-])c1=O [Compound 1.060]" measured_result="5 (5=80-100%)"

For reference, reported POST Application SETFA, percentage damage (five point scale) for Cn1nnnc1NC(=O)c1nn(C)c(=O)n(Cc2ccccc2C(F)(F)F)c1=O [Compound 1.062] stands at 5 (5=80-100%)

Kindly note the recorded POST Application SETFA, percentage damage (five point scale) for Cn1nnnc1NC(=O)c1nn(C)c(=O)n(Cc2ccccc2Cl)c1=O [Compound 1.059] , which is 4 (4=60-79%)

// POST Application SETFA, percentage damage (five point scale) lookup, compound = Cn1nnnc1NC(=O)c1nn(C)c(=O)n(Cc2cc(F)ccc2F)c1=O [Compound 1.061] , result: 5 (5=80-100%)

Kindly note the recorded POST Application SETFA, percentage damage (five point scale) for Cn1nnnc1NC(=O)c1nn(C)c(=O)n(Cc2ccc(F)cc2)c1=O [Compound 1.073] , which is 2 (2=20-39%)

The reported POST Application SETFA, percentage damage (five point scale) of the compound Cn1nnnc1NC(=O)c1nn(C)c(=O)n(Cc2ccccc2)c1=O [Compound 1.022] was 4 (4=60-79%)

###

In this section we review reported POST Application SETFA, percentage damage (five point scale) values for a set of molecules.
System: Setaria faberi (SETFA)
Assay Summary: Herbicidal glasshouse test, post-emergence, SETFA
Format: in vivo
Experimental Context: applied at 1000 g/h, evaluated after 13 days

Solved entries (count: 5):
line_notation=Cn1cnnc1NC(=O)c1nn(C)c(=O)n(-c2cccc(F)c2F)c1=O measured_result="4 (4=60-79%)"
line_notation=Cn1nnnc1NC(=O)c1nn(C)c(=O)n(Cc2ccc(F)cc2F)c1=O measured_result="1 (1=0-19%)"
line_notation=C=CCn1nc(C(=O)Nc2nnnn2C)c(=O)n(-c2cccc(F)c2)c1=O measured_result="5 (5=80-100%)"
line_notation=COc1ccc(-n2c(=O)c(C(=O)Nc3nnnn3C)nn(C)c2=O)cc1Cl measured_result="5 (5=80-100%)"
line_notation=Cn1nnnc1NC(=O)c1nn(C)c(=O)n(-c2cc(Cl)cc(Cl)c2)c1=O measured_result="5 (5=80-100%)"

Tested system Setaria faberi (SETFA); POST Application SETFA, percentage damage (five point scale) recorded for C=CCn1c(=O)c(C(=O)Nc2nnnn2C)nn(C)c1=O was 4 (4=60-79%)

###

System: Setaria faberi (SETFA)
Assay Summary: Herbicidal glasshouse test, post-emergence, SETFA
Assay type: in vivo
Experimental Context: applied at 1000 g/h, evaluated after 13 days
Quantity Kind: POST Application SETFA, percentage damage (five point scale)

molecule=Cn1nnnc1NC(=O)c1nn(C)c(=O)n(Cc2ccc(Cl)c(Cl)c2)c1=O target_or_system="Setaria faberi (SETFA)" measured_result="1 (1=0-19%)"
molecule=Cn1nnnc1NC(=O)c1nn(C)c(=O)n(Cc2ccc([N+](=O)[O-])cc2)c1=O target_or_system="Setaria faberi (SETFA)" measured_result="1 (1=0-19%)"
molecule=C#CCn1c(=O)c(C(=O)Nc2nnnn2C)nn(C)c1=O target_or_system="Setaria faberi (SETFA)" measured_result="5 (5=80-100%)"

Lab note: Cc1ccc(Cl)cc1-n1c(=O)c(C(=O)Nc2nnnn2C)nn(C)c1=O gave POST Application SETFA, percentage damage (five point scale) of 5 (5=80-100%)

So for Cc1cccc(-n2c(=O)c(C(=O)Nc3nnnn3C)nn(C)c2=O)c1 [Compound 1.053] , the logged POST Application SETFA, percentage damage (five point scale) turned out to be 3 (3=40-59%)

###

In this section we review reported PRE Application ALOMY, percentage damage (five point scale) values for a set of compounds.
System: Alopecurus myosuroides (ALOMY)
Assay Summary: Herbicidal glasshouse test, pre-emergence, ALOMY
Format: in vivo
Experimental Context: applied at 1000 g/h, evaluated after 13 days

Below are worked cases with known answers.
line_notation=COc1ccc([N+](=O)[O-])cc1Cn1c(=O)c(C(=O)Nc2nnnn2C)nn(C)c1=O target_or_system="Alopecurus myosuroides (ALOMY)" measured_result="5 (5=80-100%)"
line_notation=COc1ccc(F)c(Cn2c(=O)c(C(=O)Nc3nnnn3C)nn(C)c2=O)c1Cl target_or_system="Alopecurus myosuroides (ALOMY)" measured_result="4 (4=60-79%)"
line_notation=Cn1nnnc1NC(=O)c1nn(C)c(=O)n(Cc2ccc(C(F)(F)F)cc2)c1=O target_or_system="Alopecurus myosuroides (ALOMY)" measured_result="5 (5=80-100%)"

Pending compound:
Lab note: Cn1nnnc1NC(=O)c1nn(C)c(=O)n(CCC(F)(F)F)c1=O gave PRE Application ALOMY, percentage damage (five point scale) of 5 (5=80-100%)

###

Listing of entries alongside the reported PRE Application ALOMY, percentage damage (five point scale).
Tested on: Alopecurus myosuroides (ALOMY)
Assay Summary: Herbicidal glasshouse test, pre-emergence, ALOMY
Format: in vivo
Experimental Context: applied at 1000 g/h, evaluated after 13 days

Use the examples below as a reference point.
compound="Cn1nnnc1NC(=O)c1nn(C)c(=O)n(Cc2ccc(C#N)cc2)c1=O [Compound 1.050]" target_or_system="Alopecurus myosuroides (ALOMY)" measured_result="5 (5=80-100%)"
compound="Cn1ncnc1OC(=O)c1cn(C)c(=O)n(-c2cccc(F)c2)c1=O [Compound 2.001]" target_or_system="Alopecurus myosuroides (ALOMY)" measured_result="1 (1=0-19%)"
compound="Cc1ccc(-n2c(=O)c(C(=O)Nc3nnnn3C)nn(C)c2=O)cc1C [Compound 1.026]" target_or_system="Alopecurus myosuroides (ALOMY)" measured_result="5 (5=80-100%)"
compound="Cn1nnnc1NC(=O)c1nn(C)c(=O)n(Cc2ccc(Cl)c(Cl)c2)c1=O [Compound 1.068]" target_or_system="Alopecurus myosuroides (ALOMY)" measured_result="3 (3=40-59%)"
compound="Cn1nnnc1NC(=O)c1nn(C)c(=O)n(-c2cccc(F)c2)c1=O [Compound 1.017]" target_or_system="Alopecurus myosuroides (ALOMY)" measured_result="5 (5=80-100%)"

Alopecurus myosuroides (ALOMY) assay, compound COc1cc(Cn2c(=O)c(C(=O)Nc3nnnn3C)nn(C)c2=O)cc(Cl)n1 [Compound 1.070] , recorded PRE Application ALOMY, percentage damage (five point scale) = 5 (5=80-100%)

Form field, PRE Application ALOMY, percentage damage (five point scale) with Alopecurus myosuroides (ALOMY), item Cn1ncnc1NC(=O)c1cn(C)c(=O)n(-c2ccccc2)c1=O [Compound 2.003] : 1 (1=0-19%)

Recorded PRE Application ALOMY, percentage damage (five point scale) for Cc1cccc(-n2c(=O)c(C(=O)Nc3nnnn3C)nn(C)c2=O)c1 [Compound 1.053] on Alopecurus myosuroides (ALOMY) was 5 (5=80-100%)

Entry Cn1nnnc1NC(=O)c1nn(C)c(=O)n(Cc2ccc(C(F)F)cc2)c1=O [Compound 1.086] , Alopecurus myosuroides (ALOMY) data, PRE Application ALOMY, percentage damage (five point scale) value: 5 (5=80-100%)

Record Cn1nnnc1NC(=O)c1nn(C)c(=O)n(Cc2ccccc2C#N)c1=O [Compound 1.083] has Alopecurus myosuroides (ALOMY) PRE Application ALOMY, percentage damage (five point scale) equal to 5 (5=80-100%)

Param item: Cc1cc(C)cc(Cn2c(=O)c(C(=O)Nc3nnnn3C)nn(C)c2=O)c1 [Compound 1.074] ; param system: Alopecurus myosuroides (ALOMY); output PRE Application ALOMY, percentage damage (five point scale): 5 (5=80-100%)

Measured PRE Application ALOMY, percentage damage (five point scale) for this entry C=CCn1nc(C(=O)Nc2nnnn2C)c(=O)n(-c2cccc(F)c2)c1=O [Compound 1.007] on Alopecurus myosuroides (ALOMY): 2 (2=20-39%)

Measured PRE Application ALOMY, percentage damage (five point scale) (Alopecurus myosuroides (ALOMY)), entry Cn1nnnc1NC(=O)c1nn(C)c(=O)n(-c2cccc(Cl)c2)c1=O [Compound 1.019] : 5 (5=80-100%)

The observed PRE Application ALOMY, percentage damage (five point scale) for Cc1cccc(-n2c(=O)c(C(=O)Nc3nnnn3C)nn(C)c2=O)c1 [Compound 1.025] when tested with Alopecurus myosuroides (ALOMY) stands at 5 (5=80-100%)

Entry Cn1nnnc1NC(=O)c1nn(C)c(=O)n(-c2ccc(OC(F)(F)F)c(F)c2)c1=O [Compound 1.029] , Alopecurus myosuroides (ALOMY) data, PRE Application ALOMY, percentage damage (five point scale) value: 5 (5=80-100%)

Record Cn1nnnc1NC(=O)c1nn(C)c(=O)n(Cc2cccc(Cl)c2)c1=O [Compound 1.084] has Alopecurus myosuroides (ALOMY) PRE Application ALOMY, percentage damage (five point scale) equal to 5 (5=80-100%)

The measured PRE Application ALOMY, percentage damage (five point scale) that Cn1nnnc1NC(=O)c1nn(C)c(=O)n(Cc2c(F)cccc2F)c1=O [Compound 1.065] showed for Alopecurus myosuroides (ALOMY) is 5 (5=80-100%)
